tested on: rice alpha-glucosidase; assay: Degradation by rice alpha-glucosidase; type: biochemical; conditions: pH4.0, 37° C., 18 hours
RESULT TYPE: Trehalose in degradation product by alpha-glucosidase (%)

{"columns": ["COMPOUND", "UNIT OF MEASURE", "RESULT NUMBER"],
 "data": [
  ["OC[C@H]1O[C@H](O[C@H]2O[C@H](CO)[C@@H](O[C@H]3O[C@H](CO)[C@@H](O[C@H]4O[C@H](CO)[C@@H](O[C@H]5O[C@H](CO)[C@@H](O[C@H]6O[C@H](CO)[C@@H](O)[C@H](O)[C@H]6O)[C@H](O)[C@H]5O)[C@H](O)[C@H]4O)[C@H](O)[C@H]3O)[C@H](O)[C@H]2O)[C@H](O)[C@@H](O)[C@@H]1O [PIV, alpha-maltotetraosyl trehalose]", "%", 30.2],
  ["OC[C@H]1O[C@H](O[C@H]2O[C@H](CO)[C@@H](O[C@H]3O[C@H](CO)[C@@H](O[C@H]4O[C@H](CO)[C@@H](O[C@H]5O[C@H](CO)[C@@H](O[C@H]6O[C@H](CO)[C@@H](O[C@H]7O[C@H](CO)[C@@H](O)[C@H](O)[C@H]7O)[C@H](O)[C@H]6O)[C@H](O)[C@H]5O)[C@H](O)[C@H]4O)[C@H](O)[C@H]3O)[C@H](O)[C@H]2O)[C@H](O)[C@@H](O)[C@@H]1O [PV, alpha-maltopentaosyl trehalose]", "%", 28.3],
  ["OC[C@H]1O[C@H](O[C@H]2O[C@H](CO)[C@@H](O[C@H]3O[C@H](CO)[C@@H](O)[C@H](O)[C@H]3O)[C@H](O)[C@H]2O)[C@H](O)[C@@H](O)[C@@H]1O [PI, alpha-glucosyl trehalose]", "%", 63.0],
  ["OC[C@H]1O[C@H](O[C@H]2O[C@H](CO)[C@@H](O[C@H]3O[C@H](CO)[C@@H](O[C@H]4O[C@H](CO)[C@@H](O[C@H]5O[C@H](CO)[C@@H](O)[C@H](O)[C@H]5O)[C@H](O)[C@H]4O)[C@H](O)[C@H]3O)[C@H](O)[C@H]2O)[C@H](O)[C@@H](O)[C@@H]1O [PIII, alpha-maltotriosyl trehalose]", "%", 38.1],
  ["OC[C@H]1O[C@H](O[C@H]2O[C@H](CO)[C@@H](O[C@H]3O[C@H](CO)[C@@H](O[C@H]4O[C@H](CO)[C@@H](O)[C@H](O)[C@H]4O)[C@H](O)[C@H]3O)[C@H](O)[C@H]2O)[C@H](O)[C@@H](O)[C@@H]1O [PII, alpha-maltosyl trehalose]", "%", 47.6]
]}

* * *

tested on: rice alpha-glucosidase; assay: Degradation by rice alpha-glucosidase; assay type: biochemical; details: pH4.0, 37° C., 18 hours
Recorded Glucose in degradation product by alpha-glucosidase by entry
RESULT TYPE: Glucose in degradation product by alpha-glucosidase

{"columns": ["CHEM SMILES", "RESULT"],
 "data": [
  ["OC[C@H]1O[C@H](O[C@H]2O[C@H](CO)[C@@H](O[C@H]3O[C@H](CO)[C@@H](O[C@H]4O[C@H](CO)[C@@H](O)[C@H](O)[C@H]4O)[C@H](O)[C@H]3O)[C@H](O)[C@H]2O)[C@H](O)[C@@H](O)[C@@H]1O", "52.1%"],
  ["OC[C@H]1O[C@H](O[C@H]2O[C@H](CO)[C@@H](O[C@H]3O[C@H](CO)[C@@H](O[C@H]4O[C@H](CO)[C@@H](O[C@H]5O[C@H](CO)[C@@H](O[C@H]6O[C@H](CO)[C@@H](O)[C@H](O)[C@H]6O)[C@H](O)[C@H]5O)[C@H](O)[C@H]4O)[C@H](O)[C@H]3O)[C@H](O)[C@H]2O)[C@H](O)[C@@H](O)[C@@H]1O", "69.5%"],
  ["OC[C@H]1O[C@H](O[C@H]2O[C@H](CO)[C@@H](O[C@H]3O[C@H](CO)[C@@H](O[C@H]4O[C@H](CO)[C@@H](O[C@H]5O[C@H](CO)[C@@H](O[C@H]6O[C@H](CO)[C@@H](O[C@H]7O[C@H](CO)[C@@H](O)[C@H](O)[C@H]7O)[C@H](O)[C@H]6O)[C@H](O)[C@H]5O)[C@H](O)[C@H]4O)[C@H](O)[C@H]3O)[C@H](O)[C@H]2O)[C@H](O)[C@@H](O)[C@@H]1O", "71.4%"],
  ["OC[C@H]1O[C@H](O[C@H]2O[C@H](CO)[C@@H](O[C@H]3O[C@H](CO)[C@@H](O[C@H]4O[C@H](CO)[C@@H](O[C@H]5O[C@H](CO)[C@@H](O)[C@H](O)[C@H]5O)[C@H](O)[C@H]4O)[C@H](O)[C@H]3O)[C@H](O)[C@H]2O)[C@H](O)[C@@H](O)[C@@H]1O", "61.7%"],
  ["OC[C@H]1O[C@H](O[C@H]2O[C@H](CO)[C@@H](O[C@H]3O[C@H](CO)[C@@H](O)[C@H](O)[C@H]3O)[C@H](O)[C@H]2O)[C@H](O)[C@@H](O)[C@@H]1O", "36.5%"]
]}

* * *

Measured Composition: residual substrate accompanies every entry in the list below.
target: trehalose-releasing enzyme (Rhizobium sp. M-11, UniProt Q53238); construct: M-11, about 58-68 kDa; assay type: biochemical, Rhizobium species M-11; details: trehalose-releasing enzyme, 48 h, pH 7
Sequence (Q53238 whole entry): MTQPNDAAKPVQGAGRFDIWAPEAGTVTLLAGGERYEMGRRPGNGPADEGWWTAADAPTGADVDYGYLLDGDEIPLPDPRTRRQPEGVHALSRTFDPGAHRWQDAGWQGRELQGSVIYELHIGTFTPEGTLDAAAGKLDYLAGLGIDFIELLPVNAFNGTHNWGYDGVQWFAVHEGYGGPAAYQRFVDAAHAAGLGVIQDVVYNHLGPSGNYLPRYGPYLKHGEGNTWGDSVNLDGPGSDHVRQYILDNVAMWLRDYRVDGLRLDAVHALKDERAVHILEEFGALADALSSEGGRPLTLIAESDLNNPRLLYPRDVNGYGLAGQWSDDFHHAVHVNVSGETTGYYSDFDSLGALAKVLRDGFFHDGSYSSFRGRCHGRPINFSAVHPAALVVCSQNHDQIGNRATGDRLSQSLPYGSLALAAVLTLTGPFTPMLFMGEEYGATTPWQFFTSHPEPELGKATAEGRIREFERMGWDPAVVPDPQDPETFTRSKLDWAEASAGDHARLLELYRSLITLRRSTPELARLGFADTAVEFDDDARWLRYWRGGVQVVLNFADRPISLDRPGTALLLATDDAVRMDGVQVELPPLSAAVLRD
RESULT TYPE: Composition: residual substrate (%)

{"columns": ["MOLECULE", "RESULT TYPE", "RESULT NUMBER"],
 "data": [
  ["OC[C@H]1O[C@H](O[C@H]2O[C@H](CO)[C@@H](O[C@H]3O[C@H](CO)[C@@H](O)[C@H](O)[C@H]3O)[C@H](O)[C@H]2O)[C@H](O)[C@@H](O)[C@@H]1O [PI, alpha-glucosyl trehalose]", "Composition: residual substrate", 76.0],
  ["OC[C@H]1O[C@H](O[C@H]2O[C@H](CO)[C@@H](O[C@H]3O[C@H](CO)[C@@H](O[C@H]4O[C@H](CO)[C@@H](O[C@H]5O[C@H](CO)[C@@H](O[C@H]6O[C@H](CO)[C@@H](O[C@H]7O[C@H](CO)[C@@H](O)[C@H](O)[C@H]7O)[C@H](O)[C@H]6O)[C@H](O)[C@H]5O)[C@H](O)[C@H]4O)[C@H](O)[C@H]3O)[C@H](O)[C@H]2O)[C@H](O)[C@@H](O)[C@@H]1O [PV, alpha-maltopentaosyl trehalose]", "Composition: residual substrate", 0.3],
  ["OC[C@H]1O[C@H](O[C@H]2[C@H](O)[C@@H](O)[C@@H](O[C@H]3[C@H](O)[C@@H](O)[C@@H](O[C@H]4[C@H](O)[C@@H](O)[C@@H](O[C@H]5[C@H](O)[C@@H](O)[C@@H](O[C@H]6[C@H](O)[C@@H](O)[C@@H](O[C@H]7[C@H](O)[C@@H](O)C(O)O[C@@H]7CO)O[C@@H]6CO)O[C@@H]5CO)O[C@@H]4CO)O[C@@H]3CO)O[C@@H]2CO)[C@H](O)[C@@H](O)[C@@H]1O (stereo partly drawn) [Maltoheptaose, maltoheptaose, reference compound]", "Composition: residual substrate", 100]
]}

* * *

test system: beta-amylase; test: Degradation by beta-amylase; format: biochemical

{"columns": ["CHEM SMILES", "Degradation by beta-amylase (in words)"],
 "data": [
  ["OC[C@H]1O[C@H](O[C@H]2O[C@H](CO)[C@@H](O[C@H]3O[C@H](CO)[C@@H](O[C@H]4O[C@H](CO)[C@@H](O)[C@H](O)[C@H]4O)[C@H](O)[C@H]3O)[C@H](O)[C@H]2O)[C@H](O)[C@@H](O)[C@@H]1O", "not degraded"],
  ["OC[C@H]1O[C@H](O[C@H]2O[C@H](CO)[C@@H](O[C@H]3O[C@H](CO)[C@@H](O)[C@H](O)[C@H]3O)[C@H](O)[C@H]2O)[C@H](O)[C@@H](O)[C@@H]1O", "not degraded"]
]}

* * *

tested on: rice alpha-glucosidase; assay: Degradation by rice alpha-glucosidase; format: biochemical
RESULT TYPE: Degradation by alpha-glucosidase (in words)

{"columns": ["COMPOUND", "RESULT"],
 "data": [
  ["OC[C@H]1O[C@H](O[C@H]2O[C@H](CO)[C@@H](O[C@H]3O[C@H](CO)[C@@H](O[C@H]4O[C@H](CO)[C@@H](O[C@H]5O[C@H](CO)[C@@H](O[C@H]6O[C@H](CO)[C@@H](O)[C@H](O)[C@H]6O)[C@H](O)[C@H]5O)[C@H](O)[C@H]4O)[C@H](O)[C@H]3O)[C@H](O)[C@H]2O)[C@H](O)[C@@H](O)[C@@H]1O [PIV, alpha-maltotetraosyl trehalose]", "degradable"],
  ["OC[C@H]1O[C@H](O[C@H]2O[C@H](CO)[C@@H](O[C@H]3O[C@H](CO)[C@@H](O[C@H]4O[C@H](CO)[C@@H](O[C@H]5O[C@H](CO)[C@@H](O)[C@H](O)[C@H]5O)[C@H](O)[C@H]4O)[C@H](O)[C@H]3O)[C@H](O)[C@H]2O)[C@H](O)[C@@H](O)[C@@H]1O [PIII, alpha-maltotriosyl trehalose]", "degradable"],
  ["OC[C@H]1O[C@H](O[C@H]2O[C@H](CO)[C@@H](O[C@H]3O[C@H](CO)[C@@H](O[C@H]4O[C@H](CO)[C@@H](O)[C@H](O)[C@H]4O)[C@H](O)[C@H]3O)[C@H](O)[C@H]2O)[C@H](O)[C@@H](O)[C@@H]1O [PII, alpha-maltosyl trehalose]", "degradable"],
  ["OC[C@H]1O[C@H](O[C@H]2O[C@H](CO)[C@@H](O[C@H]3O[C@H](CO)[C@@H](O[C@H]4O[C@H](CO)[C@@H](O[C@H]5O[C@H](CO)[C@@H](O[C@H]6O[C@H](CO)[C@@H](O[C@H]7O[C@H](CO)[C@@H](O)[C@H](O)[C@H]7O)[C@H](O)[C@H]6O)[C@H](O)[C@H]5O)[C@H](O)[C@H]4O)[C@H](O)[C@H]3O)[C@H](O)[C@H]2O)[C@H](O)[C@@H](O)[C@@H]1O [PV, alpha-maltopentaosyl trehalose]", "degradable"]
]}
